Target: human full-length recombinant HPK1 (Homo sapiens (Human))
Experiment: HPK1 biochemical enzyme assay, microfluidic mobility shift assay (MSA)
Conditions: HPK1 mobility shift assay; read-out: HPK1 Enzyme Assay_Ki
Experimental: HPK1 enzyme inhibition was measured using a microfluidic mobility shift assay (MSA). […] The reactions were conducted for 60 min at 37° C., stopped by the addition of 50 μL of 0.015 M EDTA, pH 8, and the extent of reactions (˜15-20% conversion with no inhibitor) was determined after electrophoretic separation of the fluorescently labeled peptide substrate and phosphorylated product on an LabChip EZ Reader II (PerkinElmer, Inc., Waltham, Mass.). […]
measurement kind: Ki (pM)
Use pM as the unit, but write only the number.

Enquiry: Please provide the recorded Ki for CCCn1cnnc1-c1cccc(N2Cc3c(cc(C4(C)CC4)nc3CN)C2=O)n1 [Example 90] , tested on human full-length recombinant HPK1 (Homo sapiens (Human)).
Return: 1460

Enquiry: Please provide the recorded Ki for Cc1nnc(-c2cccc(N3Cc4c(cc(N(C)C(C)C)nc4CN)C3=O)n2)n1C(C)C [Example 165] , tested on human full-length recombinant HPK1 (Homo sapiens (Human)).
Return: 280

Enquiry: Please provide the recorded Ki for CNCc1nc(N(C)C)cc2c1CN(c1cccc(-c3nncn3CC(C)C)n1)C2=O [Example 177] , tested on human full-length recombinant HPK1 (Homo sapiens (Human)).
Return: 260

Enquiry: Please provide the recorded Ki for CCC(CC)n1cnnc1-c1cccc(N2Cc3c(cc(N(CC)C(C)C)nc3CN)C2=O)n1 [Example 166] , tested on human full-length recombinant HPK1 (Homo sapiens (Human)).
Return: 500

====

Give log10 of Ki for every item shown.
Molecular target: human full-length recombinant HPK1 (Homo sapiens (Human), UniProt Q92918)
Sequence (Q92918 whole entry): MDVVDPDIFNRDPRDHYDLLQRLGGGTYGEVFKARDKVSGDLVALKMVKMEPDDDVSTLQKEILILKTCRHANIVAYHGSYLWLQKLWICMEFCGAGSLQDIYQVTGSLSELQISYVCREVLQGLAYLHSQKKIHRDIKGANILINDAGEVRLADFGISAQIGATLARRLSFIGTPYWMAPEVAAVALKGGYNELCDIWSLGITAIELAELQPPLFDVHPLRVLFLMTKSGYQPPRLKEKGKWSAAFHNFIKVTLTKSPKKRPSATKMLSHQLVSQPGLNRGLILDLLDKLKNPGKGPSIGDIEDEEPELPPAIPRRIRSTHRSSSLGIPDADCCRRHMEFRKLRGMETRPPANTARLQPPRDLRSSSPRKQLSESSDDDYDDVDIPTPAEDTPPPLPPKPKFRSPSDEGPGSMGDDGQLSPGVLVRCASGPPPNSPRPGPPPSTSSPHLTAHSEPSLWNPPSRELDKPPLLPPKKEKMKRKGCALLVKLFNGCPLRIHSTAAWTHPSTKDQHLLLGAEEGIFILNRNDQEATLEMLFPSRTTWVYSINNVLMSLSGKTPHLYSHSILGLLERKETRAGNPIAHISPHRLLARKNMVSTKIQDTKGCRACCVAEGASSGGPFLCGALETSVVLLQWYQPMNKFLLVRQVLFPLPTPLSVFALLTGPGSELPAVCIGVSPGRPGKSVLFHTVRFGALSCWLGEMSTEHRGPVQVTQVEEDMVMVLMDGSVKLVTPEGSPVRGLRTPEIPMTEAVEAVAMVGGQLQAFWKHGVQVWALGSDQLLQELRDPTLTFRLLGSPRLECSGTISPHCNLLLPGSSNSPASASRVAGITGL
Experiment: HPK1 biochemical enzyme assay, microfluidic mobility shift assay (MSA)
Conditions: HPK1 mobility shift assay; read-out: HPK1 Enzyme Assay_Ki
Protocol: HPK1 enzyme inhibition was measured using a microfluidic mobility shift assay (MSA). […] The reactions were conducted for 60 min at 37° C., stopped by the addition of 50 μL of 0.015 M EDTA, pH 8, and the extent of reactions (˜15-20% conversion with no inhibitor) was determined after electrophoretic separation of the fluorescently labeled peptide substrate and phosphorylated product on an LabChip EZ Reader II (PerkinElmer, Inc., Waltham, Mass.). […]
Lab note - Ki converted to log10 from values in nM.

Enquiry: Requested field: log10 of Ki. Item: `CNCc1nc(N(C)C(C)C)cc2c1CN(c1cccc(-c3nncn3C)n1)C2=O`
Return: -0.24

Enquiry: Requested field: log10 of Ki. Item: `CCN(CC)c1cc2c(c(CN(C)C)n1)CN(c1cccc(-c3nncn3CC)n1)C2=O`
Return: 0.40

Enquiry: Requested field: log10 of Ki. Item: `CCC(CC)n1cnnc1-c1cccc(N2Cc3c(cc(N4CCC[C@@H]4C)nc3CN)C2=O)n1`
Return: -0.92

Enquiry: Requested field: log10 of Ki. Item: `CNCc1nc(C2(C)CC2)cc2c1CN(c1cccc(N3C(=O)OC[C@@H]3CF)n1)C2=O`
Return: -0.48

Enquiry: Requested field: log10 of Ki. Item: `C[C@@H]1CCCN1c1cc2c(c(CN)n1)CN(c1cccc(N3C(=O)OC[C@@H]3C)n1)C2=O`
Return: -1.00

Enquiry: Requested field: log10 of Ki. Item: `CCC(CC)n1cnnc1-c1cccc(N2Cc3c(cc(N(C)CC)nc3CN)C2=O)n1`
Return: -0.85

Enquiry: Requested field: log10 of Ki. Item: `CCCn1cnnc1-c1cccc(N2Cc3c(cc(N(CC)C(C)C)nc3CN)C2=O)n1`
Return: -0.04

Enquiry: Requested field: log10 of Ki. Item: `CCCn1c(C)nnc1-c1cccc(N2Cc3c(cc(N4CCCC4(C)C)nc3CN)C2=O)n1`
Return: -0.80

Enquiry: Requested field: log10 of Ki. Item: `CC[C@H](C)n1cnnc1-c1cccc(N2Cc3c(cc(N(C)CC)nc3CNC)C2=O)n1`
Return: -1.22

Enquiry: Requested field: log10 of Ki. Item: `CCCn1c(CC)nnc1-c1cccc(N2Cc3c(cc(N4CCC[C@H]4C)nc3CNC)C2=O)n1`
Return: -0.03

Enquiry: Requested field: log10 of Ki. Item: `C[C@@H]1CC[C@@H](C)N1c1cc2c(c(CN)n1)CN(c1cccc(N3C(=O)OC[C@@H]3C)n1)C2=O`
Return: -0.55

Enquiry: Requested field: log10 of Ki. Item: `CCN(CC)c1cc2c(c(CN)n1)CN(c1cccc(-c3nncn3CC)n1)C2=O`
Return: -0.28

Enquiry: Requested field: log10 of Ki. Item: `Cc1nnc(-c2cccc(N3Cc4c(cc(C5(C)CC5)nc4CN)C3=O)n2)n1C1CCC1`
Return: 1.61

Enquiry: Requested field: log10 of Ki. Item: CCC(CC(F)(F)F)n1cnnc1-c1cccc(N2Cc3c(cc(C4(C)CC4)nc3CNC)C2=O)n1 (single isomer, unassigned) [Example 181]
Return: -0.89

Enquiry: Requested field: log10 of Ki. Item: `CC1(c2cc3c(c(CN)n2)CN(c2cccc(N4C(=O)OC[C@@H]4CF)n2)C3=O)CC1`
Return: 0.05

Enquiry: Requested field: log10 of Ki. Item: `CCCn1c(C)nnc1-c1cccc(N2Cc3c(cc(N(CC)CC)nc3CN)C2=O)n1`
Return: -0.44

The values you see were collected from patent US11142525B2.
